Exercise: state measured drug sensitivity score for each of the compounds provided.
- System: FMOC02_2 (patient-derived low-grade serous ovarian cancer cells)
- assayExplanation: drug sensitivity score (DSS3, normalised partial AUC of % inhibition dose-response) (DSS (score)); higher = more sensitive (stronger inhibition of viability); extreme values may be limits of the assay
- conditionParameters: 72 h; library: FO5A; assay format: 2D, 384-well, CellTiter-Glo
Keep the answer to the number alone.

Record C1=N/C2=N/c3ccc(OCCN4CCCC4)c(c3)COC/C=C/COCc3cccc(c3)C(=C1)N2 [Pacritinib] . Reported drug sensitivity score: 10.1

drug sensitivity score in this record for N#Cc1ccc2[nH]c(O)c(-c3ccc(CN4CCOCC4)cn3)c2c1 [AZD-1080] : 0

# drug sensitivity score of C=CC(=O)N1CC/C(=C\c2ccc(F)c([N+](=O)[O-])c2)C(=O)/C(=C/c2ccc(F)c([N+](=O)[O-])c2)C1 [VLX1570] = 22.3

Record CCCCc1nc2cc(/C=C/C(=O)NO)ccc2n1CCN(CC)CC [Pracinostat] , field drug sensitivity score: 13.3

For this compound ( CCc1nc(C(N)=O)c(Nc2ccc(N3CCC(N4CCN(C)CC4)CC3)c(OC)c2)nc1NC1CCOCC1 [Gilteritinib] ), measured drug sensitivity score is 3.2

drug sensitivity score recorded for this compound, CN(C)Cc1ccc(S(=O)(=O)n2ccc(/C=C/C(=O)NO)c2)cc1 [Resminostat] , is 9.7

GET /value?item= Cc1nc2cccc(N)c2c(=O)n1C1CCC(=O)NC1=O (stereo unspecified) [CC122] &field=drug sensitivity score returns 0

drug sensitivity score recorded for this compound, CN[C@@H]1C[C@H]2O[C@@](C)([C@@H]1OC)n1c3ccccc3c3c4c(c5c6ccccc6n2c5c31)C(=O)N[C@H]4O [UCN-01] , is 33.1

Query CCOc1cc2ncc(C#N)c(Nc3ccc(OCc4ccccn4)c(Cl)c3)c2cc1NC(=O)/C=C/CN(C)C [Neratinib] yields drug sensitivity score of 14.1

Form: compound = Cc1nc(Nc2ncc(C(=O)Nc3c(C)cccc3Cl)s2)cc(N2CCN(CCO)CC2)n1 [Dasatinib] ; drug sensitivity score = 19.9

Briefly, drug sensitivity score measured for COC(=O)C[C@](O)(CCCC(C)(C)O)C(=O)O[C@@H]1C(OC)=C[C@]23CCCN2CCc2cc4c(cc2[C@H]13)OCO4 [Omacetaxine] : 20.2

The value of drug sensitivity score measured for the compound COc1cc(Nc2ncc(F)c(Nc3ccc4c(n3)N(COP(=O)(O)O)C(=O)C(C)(C)O4)n2)cc(OC)c1OC [Fostamatinib] turned out to be 3.5

Input Cc1cc(Nc2cc(CN3CCOCC3)c3nc(C)c(Cc4ccc(Cl)cc4F)n3n2)n[nH]1 [Gandotinib] . Output drug sensitivity score: 16.3

Lab note: N#Cc1ccnc(N2C(=O)CC[C@H]2C(=O)N(c2cncc(F)c2)[C@H](C(=O)NC2CC(F)(F)C2)c2ccccc2Cl)c1 [Ivosidenib] gave drug sensitivity score of 0

Recorded result, CC(=O)N(O)CCCCCNC(=O)CCC(=O)N(O)CCCCCNC(=O)CCC(=O)N(O)CCCCCN [Deferoxamine] , drug sensitivity score: 0

# drug sensitivity score (compound: COc1nc(N)nc2c1ncn2[C@@H]1O[C@H](CO)[C@@H](O)[C@@H]1O [Nelarabine] ) is 0

* * *

Assignment: determine reported drug sensitivity score for the given compounds.
- System: FMOC02_1 (patient-derived low-grade serous ovarian cancer cells)
- assayExplanation: drug sensitivity score (DSS3, normalised partial AUC of % inhibition dose-response) (DSS (score)); higher = more sensitive (stronger inhibition of viability); extreme values may be limits of the assay
- conditionParameters: 72 h; library: FO5A; assay format: 2D, 384-well, CellTiter-Glo
Lab note: record just the number, no unit beside it.

Entry Clc1ccc(Nc2nnc(Cc3ccncc3)c3ccccc23)cc1 under FMOC02_1 had drug sensitivity score of 0.2

Considering O=C(Nc1cnn2ccc(N3CCC[C@@H]3c3cc(F)ccc3F)nc12)N1CC[C@H](O)C1 , its drug sensitivity score with FMOC02_1 was recorded as 0

Entry Clc1ccc(C(c2ccccc2Cl)C(Cl)Cl)cc1 (configuration not stated) under FMOC02_1 had drug sensitivity score of 0

Fill in: FMOC02_1 drug sensitivity score for Cc1ccc(C(=O)Nc2ccc(Oc3cc4cnn(C)c4cc3-c3cn[nH]c3)c(F)c2)c(=O)n1-c1ccc(F)cc1 = 1.1

For the compound CCCCCOC(=O)Nc1nc(=O)n([C@@H]2O[C@H](C)[C@@H](O)[C@H]2O)cc1F , the measured drug sensitivity score on FMOC02_1 was 0

Measured drug sensitivity score (FMOC02_1), entry CC(=O)c1c(C)c2cnc(Nc3ccc(N4CCNCC4)cn3)nc2n(C2CCCC2)c1=O : 3.8

Lab note: compound O=C(CCCCCCNC(=O)c1cnc(N(c2ccccc2)c2ccccc2)nc1)NO tested on FMOC02_1; recorded drug sensitivity score was 4.9

Query COc1cc(N2CCC(N3CCN(C)CC3)CC2)ccc1Nc1ncc(Cl)c(Nc2ccccc2P(C)(C)=O)n1 on FMOC02_1; drug sensitivity score returned: 4.4

Observed drug sensitivity score on FMOC02_1, entry CC(=O)Nc1ccc(C(=O)Nc2ccccc2N)cc1 , equals 0.7

Assay FMOC02_1, sample Cc1ccc(=O)n(-c2ccccc2)c1 , drug sensitivity score read: 0

Item CC/C(=C(\c1ccccc1)c1ccc(OCCN(C)C)cc1)c1ccccc1 ; assay system FMOC02_1; drug sensitivity score reported as 6.5

FMOC02_1 assay, compound N#CC[C@H](C1CCCC1)n1cc(-c2ncnc3[nH]ccc23)cn1 , recorded drug sensitivity score = 0.5

FMOC02_1 data for N[C@@H]1CCCN(c2c(/C=C3\SC(=O)NC3=O)cccc2-c2ccccc2)C1 ; its drug sensitivity score: 1

drug sensitivity score on FMOC02_1 for Cc1cccc(-c2nn3c(c2-c2ccnc4ccc(C(N)=O)cc24)CCC3)n1 is 0

Form: item CONC(=O)c1ccccc1Nc1cc(Nc2cc(C)nn2C(C)C)ncc1Cl ; test system FMOC02_1; drug sensitivity score: 0

I looked up Cc1ccc(NC(=O)c2ccc(CN3CC[C@H](N(C)C)C3)c(C(F)(F)F)c2)cc1Nc1nccc(-c2cncnc2)n1 and its drug sensitivity score for FMOC02_1 was 0.2

Param item: O=C(c1ccc(OCCN2CCCCC2)cc1)c1c(-c2ccc(O)cc2)sc2cc(O)ccc12 ; param system: FMOC02_1; output drug sensitivity score: 5.5

Bench note, FMOC02_1: CC(O)c1cc(C(=O)N[C@@H](C)Cn2ccc(-c3ccc(C#N)c(Cl)c3)n2)n[nH]1 (some centres not stated) , drug sensitivity score reads 0

Entry COc1nc(N)nc2c1ncn2[C@@H]1O[C@H](CO)[C@@H](O)[C@@H]1O , FMOC02_1 data, drug sensitivity score value: 0

Fill in: FMOC02_1 drug sensitivity score for O=C(Nc1cc(Cl)cc2c1[nH]c1cnccc12)c1cccnc1 = 2.2

Simply: Cn1cc(-c2cnn3c(N)c(Br)c([C@@H]4CCCNC4)nc23)cn1 , FMOC02_1, drug sensitivity score = 2

Entry O=C(O)CCCCC(CCSCc1ccccc1)SCc1ccccc1 (configuration not stated) ; assay system FMOC02_1; drug sensitivity score recorded at 0

Record CNC(=O)c1ccc(C)c(-n2c(C)cc(OCc3ccc(F)cc3F)c(Br)c2=O)c1 ; system FMOC02_1; drug sensitivity score = 0

Record COc1ccc(CCc2nc3cc(-c4c(C)noc4C)ccc3n2C[C@H](C)N2CCOCC2)cc1Cl has FMOC02_1 drug sensitivity score equal to 4.5

Noted drug sensitivity score for CC(C)C[C@H](NC(=O)[C@@H](COC(C)(C)C)NC(=O)[C@H](Cc1ccc(O)cc1)NC(=O)[C@H](CO)NC(=O)[C@H](Cc1c[nH]c2ccccc12)NC(=O)[C@H](Cc1cnc[nH]1)NC(=O)[C@@H]1CCC(=O)N1)C(=O)N[C@@H](CCCNC(=N)N)C(=O)N1CCC[C@H]1C(=O)NNC(N)=O , tested on FMOC02_1: 0

Measured drug sensitivity score for this entry O=C1Cc2cc(C(=O)NC3C[C@H]4CC[C@@H](C3)N4S(=O)(=O)CC3CCN(CCCC(F)(F)F)CC3)c(Cl)cc2N1 (some centres not stated) on FMOC02_1: 0

// compound CC#CC(=O)N1CCC[C@H]1c1nc(-c2ccc(C(=O)Nc3ccccn3)cc2)c2c(N)nccn12 , assay FMOC02_1, drug sensitivity score value: 0.3

The compound CN(C)CCOc1ccc(/C(=C(/CCCl)c2ccccc2)c2ccccc2)cc1 on FMOC02_1: drug sensitivity score was 6

So the reported drug sensitivity score for Cc1cc(Nc2ncc(Cl)c(Nc3ccccc3S(=O)(=O)C(C)C)n2)c(OC(C)C)cc1C1CCNCC1 , on FMOC02_1, turned out to be 2.6

Reading of drug sensitivity score for CCCc1cc(C)[nH]c(=O)c1CNC(=O)c1cc(-c2ccnc(N3CCN(C)CC3)c2)cc2c1cnn2C(C)C with FMOC02_1: 0

Kindly note: FMOC02_1, CNS(=O)(=O)Nc1nccc(Cc2c(C)c3ccc(Oc4ncccn4)cc3oc2=O)c1F , drug sensitivity score value reported: 0

Item CCCS(=O)(=O)Nc1ccc(F)c(C(=O)c2c[nH]c3ncc(-c4ccc(Cl)cc4)cc23)c1F was tested on FMOC02_1; the reported drug sensitivity score is 3.3
